- System Name: adenosine A2B receptor (Homo sapiens (Human), UniProt P29275)
- Sequence (P29275 whole entry): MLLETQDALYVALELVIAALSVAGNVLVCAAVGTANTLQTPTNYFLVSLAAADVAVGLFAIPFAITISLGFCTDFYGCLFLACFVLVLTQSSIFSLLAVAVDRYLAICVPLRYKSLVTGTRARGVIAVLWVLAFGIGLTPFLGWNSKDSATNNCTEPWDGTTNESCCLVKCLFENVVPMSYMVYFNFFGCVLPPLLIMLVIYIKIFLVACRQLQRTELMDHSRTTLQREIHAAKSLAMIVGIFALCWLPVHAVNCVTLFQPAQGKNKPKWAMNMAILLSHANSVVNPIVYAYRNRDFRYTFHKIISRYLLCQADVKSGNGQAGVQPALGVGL
- Experiment Description: Adenosine receptor activity assay (Table 1), A2B activity
- Format: biochemical
- Experimental Conditions: A2A activity to A2B activity (A2A/A2B)
# maps each entry to its Ratio

- Molecule: "O=C(c1nc(NCc2cc(F)cc(F)c2)nc2ccsc12)N1CCC1 [Example Z168]"
  Ratio: 36.14
- Molecule: "C[C@H](Nc1nc(C(=O)NCCN2CCCC2)c2sccc2n1)c1cncc(F)c1 [Example Z357]"
  Ratio: 3.03
- Molecule: "CNC1CN(C(=O)c2nc(NCc3cncc(F)c3)nc3ccsc23)C1 [Example Z358]"
  Ratio: 69.69
- Molecule: "N[C@@H]1CCN(C(=O)c2nc(NCc3cncc(F)c3)nc3ccsc23)C1 [Example Z361]"
  Ratio: 28.33
- Molecule: "C[C@H](Nc1nc(C(=O)N2CCC[C@@H]2CO)c2sccc2n1)c1cccnc1 [Example Z46]"
  Ratio: 30.80
- Molecule: "C[C@H](Nc1nc(C(=O)NCCO)c2sccc2n1)c1cncc(Cl)c1 [Example Z291]"
  Ratio: 50.12
- Molecule: "Cc1cc2nc(N[C@@H](C)c3cccnc3)nc(C(=O)NC[C@H](C)O)c2s1 [Example Z328]"
  Ratio: 107.75
- Molecule: "Cc1cc2nc(N[C@@H](C)c3ccccn3)nc(C(=O)N3CC(O)C3)c2s1 [Example Z285]"
  Ratio: 51.08

###

- System Name: adenosine A3 receptor (Homo sapiens (Human), UniProt P0DMS8)
- Sequence (P0DMS8 whole entry): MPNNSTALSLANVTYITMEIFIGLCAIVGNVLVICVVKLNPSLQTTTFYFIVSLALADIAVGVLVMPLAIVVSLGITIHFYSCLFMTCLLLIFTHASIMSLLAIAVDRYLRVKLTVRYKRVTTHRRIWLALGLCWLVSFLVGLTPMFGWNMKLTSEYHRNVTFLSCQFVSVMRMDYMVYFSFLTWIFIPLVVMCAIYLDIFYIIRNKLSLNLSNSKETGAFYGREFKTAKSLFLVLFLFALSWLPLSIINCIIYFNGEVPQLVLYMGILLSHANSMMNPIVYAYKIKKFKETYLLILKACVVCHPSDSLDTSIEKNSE
- Experiment Description: Adenosine receptor activity assay (Table 1), A3 cAMP
- Assay type: cell-based
Property Name: IC50

- Smiles Code: "Cc1cc2nc(N[C@@H](C)c3ccccn3)nc(C(=O)NCCO)c2s1"
  Assay Value: "50 to 100 nM"
- Smiles Code: "CO[C@@H]1CCN(C(=O)c2nc(N[C@@H](C)c3cncc(F)c3)nc3cc(C)sc23)C1"
  Assay Value: "50 to 100 nM"
- Smiles Code: "C[C@H](Nc1nc(C(=O)N2CC[C@@H](CO)C2)c2sccc2n1)c1cccnc1"
  Assay Value: "> 500 nM"
- Smiles Code: "C[C@H](Nc1nc(C(=O)NCC(C)(C)O)c2sccc2n1)c1cncc(F)c1"
  Assay Value: "> 500 nM"
- Smiles Code: "C[C@H](Nc1nc(C(=O)NCC(F)(F)F)c2sccc2n1)c1ccccn1"
  Assay Value: "> 500 nM"
- Smiles Code: "Cc1cc2nc(N[C@@H](C)c3cncc(F)c3)nc(C(=O)N3CC[C@H](CO)C3)c2s1"
  Assay Value: "> 500 nM"
- Smiles Code: "COC1CN(C(=O)c2nc(N[C@@H](C)c3cncc(F)c3)nc3cc(C)sc23)C1"
  Assay Value: "50 to 100 nM"
- Smiles Code: "C[C@H](Nc1nc(C(=O)N2CC[C@@H](O)C2)c2sc(N)cc2n1)c1cncc(F)c1"
  Assay Value: "> 500 nM"
- Smiles Code: "CNc1cc2nc(N[C@@H](C)c3ccccn3)nc(C(=O)N3CC(O)C3)c2s1"
  Assay Value: "50 to 100 nM"
- Smiles Code: "C[C@H](Nc1nc(C(=O)N2CCC2)c2sc(N)cc2n1)c1cncc(F)c1"
  Assay Value: "> 500 nM"
- Smiles Code: "Cc1cc2nc(N[C@@H](C)c3cncc(F)c3)nc(C(=O)NC[C@@H](C)O)c2s1"
  Assay Value: "50 to 100 nM"
- Smiles Code: "C[C@H](Nc1nc(C(=O)N2CC(O)C2)c2sccc2n1)c1cncc(F)c1"
  Assay Value: "> 500 nM"
- Smiles Code: "Cc1cc2nc(N[C@@H](C)c3cncc(F)c3)nc(C(=O)N3CC(O)C3)c2s1"
  Assay Value: "50 to 100 nM"
- Smiles Code: "COC1CN(C(=O)c2nc(N[C@@H](C)c3ccccn3)nc3cc(C)sc23)C1"
  Assay Value: "50 to 100 nM"
- Smiles Code: "CC(C)NC(=O)c1nc(N[C@@H](C)c2ccccn2)nc2ccsc12"
  Assay Value: "50 to 100 nM"
- Smiles Code: "Cc1cc2nc(N[C@@H](C)c3ccccn3)nc(C(=O)N3CC[C@@H](O)C3)c2s1"
  Assay Value: "> 500 nM"
- Smiles Code: "Cc1cc2nc(N[C@@H](C)c3cccnc3)nc(C(=O)NCCO)c2s1"
  Assay Value: "50 to 100 nM"

Sourced from patent US11254686B1
